# experiment: qHTS assay to identify small molecule agonists of the progesterone receptor (PR) signaling pathway - cell viability counter screen (AID 1346799); further: nearly all actives have a fitted effect of over 45% in size
# test_parameters: PR-UAS-bla HEK293T viability, CellTiter-Glo luminescence, 16 h; series mostly up to 92.4 µM
Results filed as inconclusive are left out. The source made the active and inactive calls. The call rests on the fitted dose curve.
Log the outcome using a class from active, inactive

C=CC(=O)OCCCCCCCCCC ... inactive
CCc1ccc(C(=O)C(C)CN2CCCCC2)cc1 (configuration not stated) ... inactive
CCOC(OCC)OCC ... inactive
Cc1nc(C)c(C)nc1C ... active

Task item: Hey, what did the test say about CCCCCCCCS ?
Reply: inactive

Task item: Record: C/C(=C(\CCO)SS/C(CCO)=C(\C)N(C=O)Cc1cnc(C)nc1N)N(C=O)Cc1cnc(C)nc1N
Reply: inactive

Task item: Repeat with C=C[Si]1(C)O[Si](C)(C=C)O[Si](C)(C=C)O[Si](C)(C=C)O1 (configuration not stated)
Reply: inactive

Values were extracted from PubChem BioAssay (Tox21).
